Biological target: Yer064c (UniProt P40041)
Sequence: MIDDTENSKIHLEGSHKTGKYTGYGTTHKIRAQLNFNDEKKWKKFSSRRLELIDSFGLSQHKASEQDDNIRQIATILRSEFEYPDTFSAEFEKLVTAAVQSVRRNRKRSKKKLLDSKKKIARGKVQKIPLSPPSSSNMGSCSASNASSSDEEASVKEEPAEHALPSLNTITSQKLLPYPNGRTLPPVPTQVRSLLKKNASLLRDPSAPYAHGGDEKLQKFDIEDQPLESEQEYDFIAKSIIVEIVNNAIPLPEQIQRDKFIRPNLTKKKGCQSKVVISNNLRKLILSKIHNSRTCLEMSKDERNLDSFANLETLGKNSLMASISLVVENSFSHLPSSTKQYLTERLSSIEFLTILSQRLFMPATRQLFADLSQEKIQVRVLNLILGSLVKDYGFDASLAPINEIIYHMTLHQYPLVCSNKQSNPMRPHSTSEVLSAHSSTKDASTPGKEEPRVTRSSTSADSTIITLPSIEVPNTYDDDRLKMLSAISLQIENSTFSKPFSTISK
Assay: PBM E-score (8-mer binding enrichment) (E-score (-0.5 to 0.5)); higher = stronger / more preferred TF binding
Conditions: protein concentration: 200 nM; construct: GST-full length
Whole data set: some 33,000 sequences, median “E-score (-0.5 to 0.5)” near -0.036, cut for the highest 2% near 0.37. This is one part of a sample in which the highest values are shown more often than they occur.
Binary call on PBM E-score: MET from 0.2 upward, NOT MET beneath that.

>>> df
    sequence_text  class_label
 0       CACAACTG      NOT MET
 1       AAAATATA      NOT MET
 2       ATATTGGC      NOT MET
 3       TGAGTCCA          MET
 4       GATCACAC      NOT MET
 5       ATCGAGTC          MET
 6       TGAGTACA          MET
 7       CACGTGTA      NOT MET
 8       ACTGACTG          MET
 9       CATCACAC      NOT MET
10       CTTAGTTC      NOT MET
11       CGAGTCTA      NOT MET
12       GGAGTCTA      NOT MET
13       ATGACCGC      NOT MET
14       GTTAGTTA      NOT MET
15       GTATTGTA      NOT MET
16       CTTAGTCC          MET
17       CATCAGGA      NOT MET
18       CAGGGGGC      NOT MET
19       ACGCCATC      NOT MET
20       AATCACAT          MET
21       AAAACGGT      NOT MET
22       CTCGAGAC      NOT MET
23       ATCTCTAA      NOT MET
24       TAATGCTA      NOT MET
25       CCGAAAAA      NOT MET
26       ATCGAGTA      NOT MET
27       GCTTTCAA      NOT MET
28       AGCTTGGC      NOT MET
29       CGCTGAAC      NOT MET
